- System: LOU-NH91
- assay_notes: relative viability (nuclei count vs DMSO), 5 days (fraction); higher = more cells survive
- reported_conditions: first compound 0.005 µM
We label by threshold. Values of relative viability strictly beneath 0.5 are rule met. Values of 0.5 and up are rule not met.

>>> qualitative_label("COc1cc2nccc(Oc3ccc(NC(=O)Nc4cc(C)on4)c(Cl)c3)c2cc1OC [Tivozanib] + Nc1ncn([C@H]2C[C@H](O)[C@@H](CO)O2)c(=O)n1 [Decitabine] (partner 2 µM)")
"rule not met"
>>> qualitative_label("Nc1ccn([C@@H]2O[C@H](CO)[C@@H](O)[C@@H]2O)c(=O)n1 [Cytarabine] + C[C@@H](Oc1cc(-c2cnn(C3CCNCC3)c2)cnc1N)c1c(Cl)ccc(F)c1Cl [Crizotinib] (partner 1 µM)")
"rule not met"
>>> qualitative_label("COc1cc2nccc(Oc3ccc(NC(=O)Nc4cc(C)on4)c(Cl)c3)c2cc1OC [Tivozanib] + Nc1nc2[nH]cc(CCc3ccc(C(=O)N[C@@H](CCC(=O)O)C(=O)O)cc3)c2c(=O)[nH]1 [Pemetrexed] (partner 0.2 µM)")
"rule met"
>>> qualitative_label("Nc1ccn([C@@H]2O[C@H](CO)[C@@H](O)[C@@H]2O)c(=O)n1 [Cytarabine] + CC(C)C[C@H](NC(=O)[C@H](Cc1ccccc1)NC(=O)c1cnccn1)B(O)O [Bortezomib] (partner 0.002 µM)")
"rule met"
>>> qualitative_label("Nc1ccn([C@@H]2O[C@H](CO)[C@@H](O)[C@@H]2O)c(=O)n1 [Cytarabine] + CS(=O)(=O)CCNCc1ccc(-c2ccc3ncnc(Nc4ccc(OCc5cccc(F)c5)c(Cl)c4)c3c2)o1 [Lapatinib] (partner 2 µM)")
"rule not met"
>>> qualitative_label("COc1cc2nccc(Oc3ccc(NC(=O)Nc4cc(C)on4)c(Cl)c3)c2cc1OC [Tivozanib] + C[C@@H](Oc1cc(-c2cnn(C3CCNCC3)c2)cnc1N)c1c(Cl)ccc(F)c1Cl [Crizotinib] (partner 1 µM)")
"rule not met"
>>> qualitative_label("COc1cc2nccc(Oc3ccc(NC(=O)Nc4cc(C)on4)c(Cl)c3)c2cc1OC [Tivozanib] + C[C@]1(O)C[C@@H](c2nc(-c3ccc4ccc(-c5ccccc5)nc4c3)c3c(N)nccn32)C1 [Linsitinib] (partner 1 µM)")
"rule not met"
>>> qualitative_label("COc1cc2nccc(Oc3ccc(NC(=O)Nc4cc(C)on4)c(Cl)c3)c2cc1OC [Tivozanib] + CCNC(=O)c1noc(-c2cc(C(C)C)c(O)cc2O)c1-c1ccc(CN2CCOCC2)cc1 [Luminespib] (partner 0.01 µM)")
"rule met"
>>> qualitative_label("Nc1ccn([C@@H]2O[C@H](CO)[C@@H](O)[C@@H]2O)c(=O)n1 [Cytarabine] + NC(=O)Nc1cc(-c2cccc(F)c2)sc1C(=O)N[C@H]1CCCNC1 [AZD7762] (partner 0.2 µM)")
"rule not met"

Values from the supplement of paper PMC10307832
